- experiment.notes: Long-term/accelerated stability of crystal forms (25° C. 60% RH and 40° C. 75% RH)
- Format: physicochemical
- condition.description: 40° C., 75% RH, 2 months
readout: Purity % 2 months (%)

INSERT INTO results (compound, readout, data_value) VALUES
  ('N#Cc1ccc(N2CCC(Sc3ccc(COc4cccc5c4CN([C@H]4CCC(=O)NC4=O)C5=O)cn3)CC2)c(F)c1 [Crystal form E]', 'Purity % 2 months', 97.8),
  ('N#Cc1ccc(N2CCC(Sc3ccc(COc4cccc5c4CN([C@H]4CCC(=O)NC4=O)C5=O)cn3)CC2)c(F)c1 [Crystal form U]', 'Purity % 2 months', 99.6),
  ('N#Cc1ccc(N2CCC(Sc3ccc(COc4cccc5c4CN([C@H]4CCC(=O)NC4=O)C5=O)cn3)CC2)c(F)c1 [Crystal form D]', 'Purity % 2 months', 97.8),
  ('N#Cc1ccc(N2CCC(Sc3ccc(COc4cccc5c4CN([C@H]4CCC(=O)NC4=O)C5=O)cn3)CC2)c(F)c1 [Crystal form Q]', 'Purity % 2 months', 99.4);
